- SYSTEM_NAME: mTRΔ8 (Mus musculus, UniProt Q9JLT4)
- ASSAY_EXPLANATION: Substrate reduction by truncated mammalian TR
- Format: biochemical
- CONDITION_DETAILS: truncated Δ8 enzyme
Examples of compounds with documented pH optimum of substrate reduction follow.

O=[Se]([O-])[O-].[Na+].[Na+] [selenite, sodium selenite] : ~6.0
N[C@@H](C[Se][Se]C[C@H](N)C(=O)O)C(=O)O [selenocystine] : ~8.0
NC(=O)CCCCC1CCSS1 (stereo not shown) [lipoamide] : ~ 8.5

Now turn to the next compound.
Recorded result, O=C(O)CCCC[C@@H]1CCSS1 [Lipoic Acid, lipoic acid] , pH optimum of substrate reduction: 6.1

Cited source for all entries: paper PMC2754045
